FYI, the data here is from PubChem BioAssay (NCI).

# Test system: SK-MEL-2 melanoma
# test_protocol: NCI tumour cell line growth inhibition, 48 h
TGI for assorted compounds

{"columns": ["compound", "system", "unit_text", "relation_qualifier", "TGI"],
 "data": [
  ["COc1cccc(C2CC(C)(O)Oc3cc4c(cc32)OCO4)c1O (stereo unspecified)", "SK-MEL-2 melanoma", "µM", ">", 80.4],
  ["C=CCc1cccc2cc(C(=O)NCc3ccccc3)c(=N)oc12", "SK-MEL-2 melanoma", "µM", "=", 31.5],
  ["Cc1ccc(SC2c3ccc(C)cc3Oc3nc(N)c(C#N)c(N)c32)cc1 (stereo unspecified)", "SK-MEL-2 melanoma", "µM", "=", 3.71],
  ["O=S(=O)(O)CCCc1cccc2ccccc12", "SK-MEL-2 melanoma", "µM", ">", 100],
  ["NC(=S)N/N=C/C(=O)O", "SK-MEL-2 melanoma", "µM", ">", 100],
  ["Cc1ccc(S(=O)(=O)c2[nH]cc(/C(=C\\C3CCCCC3)[N+](=O)[O-])c2C2CCCCC2)cc1", "SK-MEL-2 melanoma", "µM", "=", 1.82],
  ["COC(=O)c1ccc2c(c1)nc(NC(=O)c1ccccc1)n2CCCc1ccccc1", "SK-MEL-2 melanoma", "µM", ">", 100],
  ["CC1(C)OC(C(=O)Nc2cc3c4ccccc4ccc3c3ccccc23)C(C(=O)N2CCCCC2)O1 (stereo unspecified)", "SK-MEL-2 melanoma", "µM", ">", 100],
  ["BrC1=C(Br)C2(SCCS2)[C@H]2C[C@@H]1c1ccccc12", "SK-MEL-2 melanoma", "µM", ">", 100],
  ["CC(=O)CCn1ncc(Cl)c(Cl)c1=O", "SK-MEL-2 melanoma", "µM", "=", 28.4],
  ["CCOC(=O)c1cnc2c(ccc3[nH]n(C)nc32)c1=O", "SK-MEL-2 melanoma", "µM", "=", 46.1]
]}
